Tested on: Wolbachia pipientis
Assay: Anti-Wolbachia Cell-Based Screen
Type: functional
Set-up: scale not given: in the data most compounds retested in dose-response had high values
Details: 5 µM
Among all 48,000 compounds or so, about 13,000 (27%) showed an effect of 50% or more. The list shows a part of the results.
Would you kindly list Percent Effect for each of these molecules?
Please append the unit to your numeric answer.

Request: Which Percent Effect is listed for Cc1ccc(CN2C[C@H](N3CCOCC3)[C@@H]3OCCC[C@@H]32)o1.O=C(O)C(F)(F)F.O=C(O)C(F)(F)F ?
Result: -1.951%

Request: Which Percent Effect is listed for Cc1noc(CCCC(=O)NC(C)c2nnc3n2CCCCC3)n1 (stereo unspecified) ?
Result: -8.198%

Request: Which Percent Effect is listed for CC(=O)NCc1noc2c1CN(Cc1cnn(C)c1)CC2 ?
Result: 0.2145%

Request: Which Percent Effect is listed for CC(=O)OCC1CCCCN1C(=O)c1ccc(Cn2ccnc2)o1 (stereo unspecified) ?
Result: 0.6554%

Request: Which Percent Effect is listed for CN1CCC(CO[C@H]2CN(C(=O)c3cccn3C)[C@@H]3COC[C@H]23)CC1 ?
Result: -44.74%

Request: Which Percent Effect is listed for Cc1cc(CN2C[C@H](OCC3CCOCC3)[C@H]3COC[C@H]32)oc1C.O=C(O)C(F)(F)F ?
Result: 99%

Request: Which Percent Effect is listed for COC(=O)c1cccc(C(=O)NCc2ccc3c(c2)CCCN3C)c1 ?
Result: 93.26%

Request: Which Percent Effect is listed for Cc1cc(CN2CC[C@H]3[C@H]2CCN3S(C)(=O)=O)oc1C.O=C(O)C(F)(F)F ?
Result: -17.79%

Request: Which Percent Effect is listed for CC(C)Oc1ccc(C(=O)NCc2ccc3c(c2)CCCN3C)cn1 ?
Result: 82.05%

Request: Which Percent Effect is listed for COc1ccc(CNC(=O)c2ccc(=O)n(C)c2)cc1C ?
Result: -12.06%

Request: Which Percent Effect is listed for Cc1ccc(CN2C[C@H](OCC3CCOCC3)[C@H]3COC[C@H]32)o1.O=C(O)C(F)(F)F ?
Result: 113.3%

Request: Which Percent Effect is listed for CC(NC(=O)CCC(=O)c1cccs1)c1nnc2n1CCCCC2 (stereo unspecified) ?
Result: -1.581%

Request: Which Percent Effect is listed for Cc1cnn(C2CN(CC(=O)Nc3cccnc3)C2)c1 ?
Result: -2.546%

Request: Which Percent Effect is listed for CN1CCCc2cc(CNC(=O)c3ccc(NC4CC4)nc3)ccc21 ?
Result: -0.6873%

Request: Which Percent Effect is listed for COc1cc(C(=O)NCc2ccc3c(c2)CCCN3C)cc(OC)c1Br ?
Result: 103.6%

Request: Which Percent Effect is listed for CNC(=O)[C@H]1C[C@H]2OCC[C@H]2N(Cc2ccc(C)o2)C1.O=C(O)C(F)(F)F ?
Result: -19.44%

Request: Which Percent Effect is listed for COC(=O)c1cccc(CNC(=O)c2cc(C(C)C)n(C)n2)c1 ?
Result: -2.718%

Request: Which Percent Effect is listed for CC(C)Oc1ccc(C(=O)NCc2ccnc(N3CCCC3)c2)cn1 ?
Result: 1.854%

Request: Which Percent Effect is listed for CC(C)NC(=O)C1CCC2(CCN(Cc3cnn(C)c3)CC2)CO1.O=C(O)C(F)(F)F (stereo unspecified) ?
Result: -4.372%

Request: Which Percent Effect is listed for CC(C1CCN(Cc2cnn(C)c2C2CC2)CC1)N1CCCC1 (stereo unspecified) ?
Result: 22.88%

Request: Which Percent Effect is listed for Cc1ccc(CN2C[C@H](OCC3CCN(C)CC3)[C@H]3COC[C@H]32)o1 ?
Result: 110.9%
